# assay_system: unlabeled SNCA IRE RNA (RNA-0)
# assay: Competitive binding assay (2-AP), RNA-0
# assay_context: read-out: competitive Kd; RNA-0, native SNCA IRE
assay_endpoint: pKd
Recall that pKd is obtained by taking minus log10 of the concentration measured in molar.

Query block: What measured pKd goes with N=C(N)c1ccc(Nc2ccc(-c3cc4ccc(C(=N)N)cc4[nH]3)cc2)cc1 [Synucleozid A] ?
Result block: 5.82

====

# assay_system: RNA-6 (A bulge mutated to U or G bulge)
# assay: Competitive binding assay (2-AP), RNA-6
assay_endpoint: Kd

Query block: State its Kd on RNA-6 (A bulge mutated to U or G bulge): N=C(N)c1ccc(Nc2ccc(-c3cc4ccc(C(=N)N)cc4[nH]3)cc2)cc1 [Synucleozid A]
Result block: ~20 µM

The measured values listed here are drawn from patent US20230054976A1.
